# Test system: corn
# Test name: Test B pre/postemergence corn
# Type: in vivo, Zea mays
# Conditions used: Postemergence, Rate 62 g/ha; scale 0 to 10, 0 is no effect, 10 is complete control
Result type: Corn plant response rating
Answers are plain numbers.

List Corn plant response rating for every entry below, keeping the order given.
1. COc1ccc(-n2c(=O)on(C(=O)N(c3ccc(F)cc3)C(C)C)c2=O)c(C)c1
2. Cc1nn(C)c(C)c1-n1c(=O)on(C(=O)N(c2ccc(F)cc2)C(C)C)c1=O
3. C=CCn1c(=O)on(C(=O)N(c2ccccc2)C(C)C)c1=O

Reply text:
1. 0
2. 0
3. 3

* * *

Please provide measured Plant response rating, Bedstraw for the entries that follow.
# Test system: bedstraw
# Test name: Test B pre/postemergence bedstraw
# Type: in vivo, Galium aparine
# Conditions used: Rate 250 g/ha, Postemergence; scale of 0 to 10 where 0 is no effect and 10 is complete control
Give bare numbers.

CC(C)=CCn1c(=O)on(C(=O)N(c2ccc(Cl)cc2)C(C)C)c1=O    2

List Plant response rating, Bedstraw for every entry below, keeping the order given.
1. CC(C)N(C(=O)n1oc(=O)n(C2CCCCO2)c1=O)c1ccc(F)cc1 (stereo not drawn)
2. CCC(=O)Cn1c(=O)on(C(=O)N(c2ccc(Cl)cc2)C(C)C)c1=O

Reply text:
0
2

* * *

Please provide measured Sugarbeets plant response rating for the entries that follow.
# Test system: sugar beet
# Test name: Test B pre/postemergence sugar beet
# Assay type: in vivo, Beta vulgaris
# Conditions used: Preemergence, Rate 250 g/ha; scale of 0 to 10 where 0 is no effect and 10 is complete control
Give bare numbers.

CC(C)N(C(=O)n1oc(=O)n(-c2ccc3ccccc3c2)c1=O)c1ccc(F)cc1F [Compound 335]    0
CC(C)N(C(=O)n1oc(=O)n(CC#C[Si](C)(C)C)c1=O)c1ccc(F)cc1 [Compound 213]    0
CC(C)N(C(=O)n1oc(=O)n(CCCN(C)C)c1=O)c1ccc(F)cc1 [Compound 323]    0
CC(C)N(C(=O)n1oc(=O)n(C(C)CCl)c1=O)c1ccc(F)cc1 (stereo not drawn) [Compound 367]    7
CC(C)N(C(=O)n1oc(=O)n(C2CCC2)c1=O)c1ccccc1 [Compound 348]    3

Moving on to the next compound.
Inquiry: Identify the measured Sugarbeets plant response rating of CC(C)N(C(=O)n1oc(=O)n(C2CCCC2)c1=O)c1ccc(F)cc1F [Compound 284] for sugar beet.
Reply text: 6

* * *

# Tested on: purple nutsedge
# Test name: Test D purple nutsedge
# Assay type: in vivo, Cyperus rotundus
# Conditions used: Rate 500 g/ha; Preemergence; 0 to 100 scale
# Source text: […] Test chemicals were formulated in a non-phytotoxic solvent mixture which included a surfactant and applied preemergence to the surface of the pot containing seeds in a sandy loam soil. Untreated control pots and treated pots were placed in the greenhouse for growth and visually evaluated for injury 14 to 21 days after herbicide application. […]
Please provide measured Plant response rating, Purple nutsedge for the entries that follow.
One number for each entry.

Some solved entries appear below for comparison.
Cc1cccc(C)c1-n1c(=O)on(C(=O)N(c2ccccc2)C(C)C)c1=O    0
CC(C)N(C(=O)n1oc(=O)n(Cc2cccs2)c1=O)c1ccccc1    10
CCn1c(=O)on(C(=O)N(c2ccc(Cl)cc2)C(C)C)c1=O    30

List Plant response rating, Purple nutsedge for every entry below, keeping the order given.
1. C=CCn1c(=O)on(C(=O)N(c2ccccc2)C(C)C)c1=O
2. CC(C)N(C(=O)n1oc(=O)n(C2CCCCC2)c1=O)c1ccc(F)cc1
3. Cc1ccccc1-n1c(=O)on(C(=O)N(c2ccc(F)cc2)C(C)C)c1=O

Reply text:
100
0
0
